# test_summary: PK characteristics in humans (plasma, LC/MS/MS)
# Type: in vivo, human
# condition_set: human, plasma, oral, 10 mg, Day 15, 10 mg, n=1; read-out: Cmax
measured_quantity: Cmax (ng/mL)

| sample_smiles | measured_value |
| --- | --- |
| Nc1cc(C(F)(F)F)c(-c2nc(N3CCOCC3)c3nc(-c4cccc(NS(=O)(=O)CCCF)c4F)ccc3n2)cn1 | 74 |

====

# test_summary: PK characteristics in humans (plasma, LC/MS/MS)
# Type: in vivo, human
# condition_set: human, plasma, oral, 240 mg, steady state, 240 QD mg, n=2, mean, cancer patients; read-out: AUC0-24h

| compound | AUC(0-t) [ng·h/mL] |
| --- | --- |
| Nc1cc(C(F)(F)F)c(-c2nc(N3CCOCC3)c3nc(-c4cccc(NS(=O)(=O)CCCF)c4F)ccc3n2)cn1 [CMPD A] | 14900 |
